Entries and their measured NT50 (nM), half neutralization titer follow.
tgt: SARS-CoV-2 spike protein on whole SARS-CoV-2 virus (SARS-CoV-2, UniProt P0DTC2 14-1273)
procedure_details: cell-based or functional assay

Worked examples, 2 binders total:
F07 IgG1 (antibody, V domains shown) VH: QVQLVQSGAEVKKPGSSVRVSCKVSGYTFTGYYMHWVRQAPGQGLEWMGIINPSGGSTSYAQKFQGRVTMTRDTSTSTVYMELSSLRSEDTAVYYCARVRVGASDAFDIWGQGTMVTVSS VL: SYVLTQPPSVSVAPGQTARITCGGNNIGSKSVHWYQQKPGQAPVLVVYDDSDRPSGIPERFSGSNSGNTATLIISRVEAGDEADYYCQVWDSSSVHYVFGTGTKLTVL	45.2 nM
E08 IgG1 (antibody, V domains shown) VH: QVQLVQSGAEVKKPGSSVKVSCKASGGTFSSYAISWVRQAPGQGLEWMGGIIPIFGTANYAQKFQGRVTITADESTSTAYMELSSLRSEDTAVYYCARASGRWLQFWHYYGMDVWGQGTTVTVSS VL: SYVLTQPPSVSVAPGKTARITCGGNNIGWKSVHWYQQKPGQAPVLVVYDDSDRPSGIPERFSGSNSGNTATLTISRVEAGDEADYYCQVWDSSSDLVVFGGGTKLTVL	52.9 nM

As a next step, examine the binder that follows.
Query: Please look at this binder and report its NT50 (nM), half neutralization titer: B04 IgG1 (antibody, V domains shown) VH: QVQLVESGAEVKKPGASVKVSCKASGYTFTRYYMHWVRQAPGQGLEWMGIINPSGGTTSYAQKFQGRVTMTRDTSTSTVYMELSSLRSEDTAVYYCARSFGELTSFDYWGQGTLVTVSS VL: SYVLTQPPSVSVAPGKTARITCGGNNIGIRSVHWYQQKPGQAPVLVIYYDSDRPSGIPERFSGSKSGNTATLTISRVEAGDEADYYCQVWDSSSDHPVFGGGTKLTVL
Response: 56.7 nM
